target: Voltage-dependent T-type calcium channel subunit alpha-1H (Homo sapiens); test: Inhibition of T-type calcium channel Cav3.2 expressed in Xenopus oocytes coexpressing alpha-1H subunit at 100 uM by two-electrode voltage clamp method
Record form. Attribute: inhibition. Fill in for each entry.
Write the number in % without appending the unit.

Which inhibition reading was recorded for the molecule COC(=O)CC1c2ccccc2N=C(N(C)CCCCCN2CCCC2)N1c1ccccc1 (centres undefined) ? 47.7

Which inhibition reading was recorded for the molecule CN(CCCCCN1CCCC1)C1=Nc2ccccc2C(CC(=O)NCc2ccccc2)N1c1ccccc1 (centres undefined) ? 82.7

Which inhibition reading was recorded for the molecule CN(CCCCCN1CCCC1)C1=Nc2ccccc2C(CC(=O)NCc2ccccc2)N1c1ccc(-c2ccccc2)cc1 (centres undefined) ? 95.5

Which inhibition reading was recorded for the molecule COC(=O)CC1c2ccccc2N=C(N(C)CCCCCN2CCCC2)N1c1ccc(-c2ccccc2)cc1 (centres undefined) ? 88

----------
species: Homo sapiens; assay: Selectivity index, ratio of T-type calcium channel Cav3.1 to N-type calcium channel at 10 uM
Record form. Attribute: Ratio. Fill in for each entry.

Which Ratio reading was recorded for the compound CN(CCCCCN1CCCC1)C1=Nc2ccccc2C(CC(=O)NCc2ccccc2)N1c1ccc(-c2ccccc2)cc1 (stereo unspecified) ? 7.5

Which Ratio reading was recorded for the compound CN(CCCCCN1CCCC1)C1=Nc2ccccc2C(CC(=O)NCc2ccccc2)N1c1ccccc1 (stereo unspecified) ? 1.5

Which Ratio reading was recorded for the compound COC(=O)CC1c2ccccc2N=C(N(C)CCCCCN2CCCC2)N1c1ccccc1 (stereo unspecified) ? 5.6

Which Ratio reading was recorded for the compound COC(=O)CC1c2ccccc2N=C(NCCCCCN)N1c1ccc(-c2ccccc2)cc1 (stereo unspecified) ? > 100

Which Ratio reading was recorded for the compound COC(=O)CC1c2ccccc2N=C(N(C)CCCCCN2CCCC2)N1c1ccc(-c2ccccc2)cc1 (stereo unspecified) ? 2.6

Which Ratio reading was recorded for the compound NCCCCCNC1=Nc2ccccc2C(CC(=O)NCc2ccccc2)N1c1ccc(-c2ccccc2)cc1 (stereo unspecified) ? 10.1

----------
Record form. Attribute: inhibition. Fill in for each entry.
target: Voltage-dependent T-type calcium channel subunit alpha-1G (Homo sapiens); test: Inhibition of T-type calcium channel Cav3.1 expressed in HEK293 cells co-expressing alpha1G subunit at 10 uM by whole-cell patch clamp method; assay type: cell-based
Write the number in % without appending the unit.

Form entry - test system: Voltage-dependent T-type calcium channel subunit alpha-1G (Homo sapiens); read-out: inhibition; molecule: COC(=O)CC1c2ccccc2N=C(N(C)CCCCCN2CCCC2)N1c1ccccc1 (centres undefined) 59.5

Form entry - test system: Voltage-dependent T-type calcium channel subunit alpha-1G (Homo sapiens); read-out: inhibition; molecule: CN(CCCCCN1CCCC1)C1=Nc2ccccc2C(CC(=O)NCc2ccccc2)N1c1ccccc1 (centres undefined) 68.1

Form entry - test system: Voltage-dependent T-type calcium channel subunit alpha-1G (Homo sapiens); read-out: inhibition; molecule: COC(=O)CC1c2ccccc2N=C(N(C)CCCCCN2CCCC2)N1c1ccc(-c2ccccc2)cc1 (centres undefined) 94.9

Form entry - test system: Voltage-dependent T-type calcium channel subunit alpha-1G (Homo sapiens); read-out: inhibition; molecule: CN(CCCCCN1CCCC1)C1=Nc2ccccc2C(CC(=O)NCc2ccccc2)N1c1ccc(-c2ccccc2)cc1 (centres undefined) 88.1

----------
biological target: Voltage-dependent T-type calcium channel subunit alpha-1G (Homo sapiens, UniProt O43497); assay: Inhibition of T-type calcium channel Cav3.1 expressed in HEK293 cells co-expressing alpha1G subunit by whole-cell patch clamp method
Sequence (O43497 whole entry): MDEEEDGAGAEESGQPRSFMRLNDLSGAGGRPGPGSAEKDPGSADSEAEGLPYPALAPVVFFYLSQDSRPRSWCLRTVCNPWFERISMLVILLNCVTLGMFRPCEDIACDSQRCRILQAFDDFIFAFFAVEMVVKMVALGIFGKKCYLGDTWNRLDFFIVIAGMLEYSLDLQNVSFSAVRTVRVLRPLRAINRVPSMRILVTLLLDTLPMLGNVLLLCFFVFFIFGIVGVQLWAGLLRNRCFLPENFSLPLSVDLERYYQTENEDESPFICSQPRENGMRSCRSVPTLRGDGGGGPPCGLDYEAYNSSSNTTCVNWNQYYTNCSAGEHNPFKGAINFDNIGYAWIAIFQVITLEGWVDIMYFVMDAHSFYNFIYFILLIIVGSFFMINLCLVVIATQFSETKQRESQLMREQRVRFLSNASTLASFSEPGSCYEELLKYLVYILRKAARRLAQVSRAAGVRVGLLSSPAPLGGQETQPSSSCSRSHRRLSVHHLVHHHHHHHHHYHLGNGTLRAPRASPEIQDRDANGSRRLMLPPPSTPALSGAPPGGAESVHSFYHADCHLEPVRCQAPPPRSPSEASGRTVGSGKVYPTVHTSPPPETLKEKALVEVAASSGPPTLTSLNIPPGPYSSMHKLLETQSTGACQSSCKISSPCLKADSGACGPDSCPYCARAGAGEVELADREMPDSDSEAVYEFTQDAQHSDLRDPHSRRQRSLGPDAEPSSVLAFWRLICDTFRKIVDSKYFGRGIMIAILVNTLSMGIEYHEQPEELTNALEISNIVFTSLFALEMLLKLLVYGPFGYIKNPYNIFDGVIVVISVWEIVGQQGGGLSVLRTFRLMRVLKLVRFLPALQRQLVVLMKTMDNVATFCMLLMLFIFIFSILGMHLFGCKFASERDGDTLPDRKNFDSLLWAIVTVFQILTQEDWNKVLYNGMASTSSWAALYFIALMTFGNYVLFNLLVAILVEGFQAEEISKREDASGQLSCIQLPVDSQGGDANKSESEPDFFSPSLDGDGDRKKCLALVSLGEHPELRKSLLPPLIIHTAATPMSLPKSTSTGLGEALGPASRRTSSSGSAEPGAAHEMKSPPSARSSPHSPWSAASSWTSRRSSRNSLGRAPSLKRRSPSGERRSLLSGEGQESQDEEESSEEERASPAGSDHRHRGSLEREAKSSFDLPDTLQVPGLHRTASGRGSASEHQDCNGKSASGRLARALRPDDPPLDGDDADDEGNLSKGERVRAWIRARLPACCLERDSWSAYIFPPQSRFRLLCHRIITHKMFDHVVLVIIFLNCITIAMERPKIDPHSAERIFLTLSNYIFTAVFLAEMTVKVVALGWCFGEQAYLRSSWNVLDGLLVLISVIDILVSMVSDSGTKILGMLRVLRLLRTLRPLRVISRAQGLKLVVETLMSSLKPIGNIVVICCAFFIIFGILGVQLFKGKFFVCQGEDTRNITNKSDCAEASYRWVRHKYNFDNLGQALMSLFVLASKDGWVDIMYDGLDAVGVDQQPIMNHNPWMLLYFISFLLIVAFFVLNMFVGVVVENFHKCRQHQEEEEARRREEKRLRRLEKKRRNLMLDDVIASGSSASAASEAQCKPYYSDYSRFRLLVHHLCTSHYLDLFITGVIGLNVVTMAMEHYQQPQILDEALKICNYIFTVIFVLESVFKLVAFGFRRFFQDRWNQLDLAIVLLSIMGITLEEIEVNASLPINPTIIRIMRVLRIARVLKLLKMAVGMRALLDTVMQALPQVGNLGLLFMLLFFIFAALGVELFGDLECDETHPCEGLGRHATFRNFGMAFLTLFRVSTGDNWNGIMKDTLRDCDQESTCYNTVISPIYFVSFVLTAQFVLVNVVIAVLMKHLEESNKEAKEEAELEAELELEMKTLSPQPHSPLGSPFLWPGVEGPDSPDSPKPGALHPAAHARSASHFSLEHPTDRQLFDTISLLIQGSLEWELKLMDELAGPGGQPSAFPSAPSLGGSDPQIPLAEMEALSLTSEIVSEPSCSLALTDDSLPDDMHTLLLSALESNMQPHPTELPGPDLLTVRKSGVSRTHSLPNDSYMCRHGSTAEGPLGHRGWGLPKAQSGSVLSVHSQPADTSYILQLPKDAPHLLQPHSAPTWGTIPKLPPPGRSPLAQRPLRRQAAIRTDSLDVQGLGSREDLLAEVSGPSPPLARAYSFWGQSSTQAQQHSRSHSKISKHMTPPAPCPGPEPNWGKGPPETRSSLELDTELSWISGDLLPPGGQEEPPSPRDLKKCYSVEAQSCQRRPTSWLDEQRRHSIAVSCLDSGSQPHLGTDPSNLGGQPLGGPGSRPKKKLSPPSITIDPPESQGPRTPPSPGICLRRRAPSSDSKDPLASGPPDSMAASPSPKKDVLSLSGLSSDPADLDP
Metric name: pIC50
# log scale: pIC50 equals minus log10 of the concentration in mol/L

Which pIC50 reading was recorded for the compound COC(=O)CC1c2ccccc2N=C(N(C)CCCCCN2CCCC2)N1c1ccc(-c2ccccc2)cc1 (stereo not drawn) ? 6.47

Which pIC50 reading was recorded for the compound COC(=O)CC1c2ccccc2N=C(N(C)CCCCCN2CCCC2)N1c1ccccc1 (stereo not drawn) ? 5.23

Which pIC50 reading was recorded for the compound CN(CCCCCN1CCCC1)C1=Nc2ccccc2C(CC(=O)NCc2ccccc2)N1c1ccccc1 (stereo not drawn) ? 5.38
